# assay.system: Angiogenin (UniProt P03950)
# Sequence (P03950 25-147): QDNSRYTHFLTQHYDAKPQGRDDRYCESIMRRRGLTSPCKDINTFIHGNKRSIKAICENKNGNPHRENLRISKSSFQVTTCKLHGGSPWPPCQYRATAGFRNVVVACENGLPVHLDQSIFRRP
# experiment.summary: filter
# assay.context: 5-BrdU replaces T; apparent photocrosslink KD; plateau 16%; rate 1.58

seq.string: ATATATATGGGAGGACGATGCGGGCCACGTGTATTATCCTCAGCTTATAGCCATGGCATGGACCAGACGACGAGCGGGAAAAAAAA [Angiogenin pool 011 clone 58]
Kd [nM]: 2.2

---

# assay.system: human neutrophil elastase (hNE) (Homo sapiens) (UniProt P08246)
# Sequence: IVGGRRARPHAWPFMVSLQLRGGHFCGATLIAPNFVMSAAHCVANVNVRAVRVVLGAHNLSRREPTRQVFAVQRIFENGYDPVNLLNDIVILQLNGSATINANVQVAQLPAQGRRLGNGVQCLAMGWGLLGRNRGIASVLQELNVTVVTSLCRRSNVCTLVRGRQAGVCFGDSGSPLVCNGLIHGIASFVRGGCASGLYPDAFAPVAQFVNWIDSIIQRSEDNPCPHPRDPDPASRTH
# experiment.summary: filter
# assay.context: 5-BrdU replaces T; apparent KD from photocrosslinking 308 nm; plateau 37%; rate 0.72 J-1 cm2

seq.string: ATATATATGGGAGGACGATGCGGGCACATCACTCTATCATTTGCTACGGTACCGGAGTGAGTCCAGACGACGAGCGGGAAAAAAAA [hNE pool 2 clone 18]
Kd: 21 nM
